These measurements were taken from patent US20230148005A1.

molecular target: Ba/F3 EGFR-Del19/C797S (Homo sapiens, UniProt P00533, C797S, cells depend on it, form not given); assay: Ba/F3 viability assay (CellTiter-Glo), DC; format: cell-based; conditions: anti-proliferation, read-out: BaF3 DC IC50
Sequence (P00533 with tags, fused parts or gaps DEL746-750/C797S, form open): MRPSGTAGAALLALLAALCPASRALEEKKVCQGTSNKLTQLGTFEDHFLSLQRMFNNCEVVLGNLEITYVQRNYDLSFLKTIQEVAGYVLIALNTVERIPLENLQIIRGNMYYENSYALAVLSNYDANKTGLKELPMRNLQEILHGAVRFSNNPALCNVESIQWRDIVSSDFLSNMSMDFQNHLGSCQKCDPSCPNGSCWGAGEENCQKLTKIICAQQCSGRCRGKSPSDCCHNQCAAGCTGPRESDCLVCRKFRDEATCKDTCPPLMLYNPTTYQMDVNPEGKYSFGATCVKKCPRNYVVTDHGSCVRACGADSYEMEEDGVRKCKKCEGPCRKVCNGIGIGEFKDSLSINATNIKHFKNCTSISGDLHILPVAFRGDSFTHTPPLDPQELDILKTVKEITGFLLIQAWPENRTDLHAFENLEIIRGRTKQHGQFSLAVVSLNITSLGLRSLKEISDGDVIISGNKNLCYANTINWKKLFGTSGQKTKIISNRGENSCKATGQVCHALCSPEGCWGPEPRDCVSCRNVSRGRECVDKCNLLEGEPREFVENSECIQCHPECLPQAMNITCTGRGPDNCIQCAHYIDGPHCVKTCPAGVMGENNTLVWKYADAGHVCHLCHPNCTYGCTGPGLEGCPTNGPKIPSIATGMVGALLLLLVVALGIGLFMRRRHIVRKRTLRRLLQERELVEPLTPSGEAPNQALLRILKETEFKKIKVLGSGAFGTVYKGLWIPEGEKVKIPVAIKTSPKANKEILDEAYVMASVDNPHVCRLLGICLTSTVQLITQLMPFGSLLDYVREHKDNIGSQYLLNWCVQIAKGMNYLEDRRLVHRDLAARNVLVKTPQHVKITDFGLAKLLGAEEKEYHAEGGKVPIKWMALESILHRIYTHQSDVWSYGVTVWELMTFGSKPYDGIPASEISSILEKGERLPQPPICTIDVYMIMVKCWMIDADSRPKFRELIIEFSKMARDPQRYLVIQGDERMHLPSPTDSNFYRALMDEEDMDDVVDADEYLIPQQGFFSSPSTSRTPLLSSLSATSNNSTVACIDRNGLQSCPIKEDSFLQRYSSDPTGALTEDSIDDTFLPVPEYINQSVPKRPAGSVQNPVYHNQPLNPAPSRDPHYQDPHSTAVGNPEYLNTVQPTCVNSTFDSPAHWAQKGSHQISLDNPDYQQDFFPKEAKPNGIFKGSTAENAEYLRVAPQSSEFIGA
# maps each entry to its GI50
measuredAttribute: GI50

- compound: "CCn1cc(-c2nn3c4cc(ncc24)Nc2ccnc(n2)-c2cnn(C)c2OCCC3C)cc1CN1CCN(C)CC1 (stereo not drawn) [(76)]"
  measuredAttribute: "GI50"
  observed: "< 10 nM"
- compound: "C[C@H]1CCOc2c(cnn2C)-c2nccc(n2)Nc2cc3c(cn2)c(-c2cc(CN(C)C)ccn2)nn31 [(183)]"
  measuredAttribute: "GI50"
  observed: "10 to 100 nM"
- compound: "Cc1cc(OCCN(C)C)cc(-c2nn3c4cc(ncc24)Nc2ccnc(n2)-c2cnn(C)c2OCC[C@@H]3C)c1 [(134)]"
  measuredAttribute: "GI50"
  observed: "10 to 100 nM"
- compound: "CCn1cc(-c2nn3c4cc(ncc24)Nc2ccnc(n2)-c2cnn(C)c2OCC[C@@H]3C)cc1CN1CCN(C2CC2)CC1 [(126)]"
  measuredAttribute: "GI50"
  observed: "< 10 nM"
- compound: "C[C@H]1CCOc2c(cnn2C)-c2nccc(n2)Nc2cc3c(cn2)c(-c2ccc(CN4CCOCC4)n2C)nn31 [(120)]"
  measuredAttribute: "GI50"
  observed: "10 to 100 nM"
- compound: "CCN(CC)CCn1cc(-c2nn3c4cc(ncc24)Nc2ccnc(n2)-c2cnn(C)c2OCC[C@@H]3C)cn1 [(117)]"
  measuredAttribute: "GI50"
  observed: "10 to 100 nM"
- compound: "CCN(CC)Cc1ccc(-c2nn3c4cc(ncc24)Nc2ccnc(n2)-c2cnn(C)c2OCC[C@@H]3C)n1C [(137)]"
  measuredAttribute: "GI50"
  observed: "< 10 nM"
- compound: "CC1CCCOc2c(cnn2C)-c2nccc(n2)Nc2cc3c(cn2)c(N2CCCC2)nn31 (stereo not drawn) [(71)]"
  measuredAttribute: "GI50"
  observed: "10 to 100 nM"
- compound: "Cc1nn(CCC(C)(C)O)cc1-c1nn2c3cc(ncc13)Nc1ccnc(n1)-c1cnn(C)c1OCCCC2C (stereo not drawn) [(89)]"
  measuredAttribute: "GI50"
  observed: "10 to 100 nM"
- compound: "C[C@H]1CCOc2c(cnn2C)-c2nccc(n2)Nc2cc3c(cn2)c(N2CC[C@H](N(C)CCF)C2)nn31 [(170)]"
  measuredAttribute: "GI50"
  observed: "10 to 100 nM"
- compound: "C[C@H]1CCOc2c(cnn2C)-c2nccc(n2)Nc2cc3c(cn2)c(-c2cccc(CN4CCN(C)CC4)c2)nn31 [(98)]"
  measuredAttribute: "GI50"
  observed: "10 to 100 nM"
- compound: "C[C@H]1CCOc2c(cnn2C)-c2nccc(n2)Nc2cc3c(cn2)c(-c2csc(CN4CCN(C)CC4)n2)nn31 [(103)]"
  measuredAttribute: "GI50"
  observed: "10 to 100 nM"
- compound: "C[C@H]1CCOc2c(cnn2C)-c2nccc(n2)Nc2cc3c(cn2)c(N2CC[C@@H](N(C)C)C2)nn31 [(181)]"
  measuredAttribute: "GI50"
  observed: "10 to 100 nM"
- compound: "C[C@H]1CCOc2c(cnn2C)-c2nccc(n2)Nc2cc3c(cn2)c(-c2nn(C)cc2CCN(C)C)nn31 [(155)]"
  measuredAttribute: "GI50"
  observed: "10 to 100 nM"
- compound: "C[C@H]1CCOc2c(cnn2C)-c2nccc(n2)Nc2cc3c(cn2)c(-c2cccc(CN4CCOCC4)c2)nn31 [(177)]"
  measuredAttribute: "GI50"
  observed: "10 to 100 nM"
- compound: "Cc1nc(-c2nn3c4cc(ncc24)Nc2ccnc(n2)-c2cnn(C)c2OCC[C@@H]3C)sc1CN(C)C [(171)]"
  measuredAttribute: "GI50"
  observed: "10 to 100 nM"
- compound: "CCn1cc(C(=O)N2CCN(C)CC2)cc1-c1nn2c3cc(ncc13)Nc1ccnc(n1)-c1cnn(C)c1OCCC2C (stereo not drawn) [(88)]"
  measuredAttribute: "GI50"
  observed: "100 to 1000 nM"
- compound: "COCCN(C)Cc1ccc(-c2nn3c4cc(ncc24)Nc2ccnc(n2)-c2cnn(C)c2OCC[C@@H]3C)n1C [(136)]"
  measuredAttribute: "GI50"
  observed: "< 10 nM"
- compound: "C[C@H]1CCOc2c(cnn2C)-c2nccc(n2)Nc2cc3c(cn2)c(N2CC[C@H](O)C2)nn31 [(113)]"
  measuredAttribute: "GI50"
  observed: "< 10 nM"
- compound: "CCn1c(CN(C)C)ccc1-c1nn2c3cc(ncc13)Nc1ccnc(n1)-c1cnn(C)c1OCC[C@@H]2C [(191)]"
  measuredAttribute: "GI50"
  observed: "< 10 nM"
- compound: "C[C@H]1CCOc2c(cnn2C)-c2nccc(n2)Nc2cc3c(cn2)c(-c2ccc(CN4CCNCC4)n2C)nn31 [(119)]"
  measuredAttribute: "GI50"
  observed: "< 10 nM"
- compound: "C[C@H]1CCOc2c(cnn2C)-c2nccc(n2)Nc2cc3c(cn2)c(-c2cc4c(n2C)CCCN(C)C4)nn31 [(185)]"
  measuredAttribute: "GI50"
  observed: "10 to 100 nM"
- compound: "CN1CCN(CC2CCN(c3nn4c5cc(ncc35)Nc3ccnc(n3)-c3cnn(C)c3OCCC4)C2)CC1 (stereo not drawn) [(57)]"
  measuredAttribute: "GI50"
  observed: "10 to 100 nM"
- compound: "C[C@H]1CCOc2c(cnn2C)-c2nccc(n2)Nc2cc3c(cn2)c(-c2cc(CN4CCN(C5CC5)CC4)n(C)c2)nn31 [(147)]"
  measuredAttribute: "GI50"
  observed: "< 10 nM"
- compound: "CC1CCOc2ccncc2-c2nccc(n2)Nc2cc3c(cn2)c(N2CCC2)nn31 (stereo not drawn) [(14)]"
  measuredAttribute: "GI50"
  observed: "< 10 nM"
- compound: "C[C@H]1CCOc2c(cnn2C)-c2nccc(n2)Nc2cc3c(cn2)c(-c2ncc(CN4CCN(C)CC4)s2)nn31 [(107)]"
  measuredAttribute: "GI50"
  observed: "< 10 nM"
- compound: "C[C@H]1CCOc2c(cnn2C)-c2nccc(n2)Nc2cc3c(cn2)c(-c2cc(CN4CCOCC4)n(C)c2)nn31 [(139)]"
  measuredAttribute: "GI50"
  observed: "< 10 nM"
- compound: "C[C@H]1CCOc2c(cnn2C)-c2nccc(n2)Nc2cc3c(cn2)c(-c2cccc(N4CCC(N5CCN(C)CC5)CC4)c2)nn31 [(173)]"
  measuredAttribute: "GI50"
  observed: "< 10 nM"
- compound: "CCN(CC)CCOc1cc(-c2nn3c4cc(ncc24)Nc2ccnc(n2)-c2cnn(C)c2OCC[C@@H]3C)ccc1F [(149)]"
  measuredAttribute: "GI50"
  observed: "10 to 100 nM"
- compound: "COC(=O)C1CCCN1c1nn2c3cc(ncc13)Nc1ccnc(n1)-c1cnn(C)c1OCCC2 (stereo not drawn) [(61)]"
  measuredAttribute: "GI50"
  observed: "100 to 1000 nM"
